Coagulation factor VII (Homo sapiens) Ki, compiled from various sources.

>  <compound>
COC(=O)Nc1ccc(-c2c[nH]c([C@H](Cc3ccccc3)NC(=O)/C=C/c3cc(Cl)ccc3-n3cnnn3)n2)cc1

>  <modifier>
>

>  <Ki (nM)>
13000

$$$$
>  <compound>
Nc1ccc2[nH]c(-c3cc(CC(=O)O)cc(-c4ccccc4)c3O)cc2n1

>  <modifier>
=

>  <Ki (nM)>
2400

$$$$
>  <compound>
N=C(N)c1ccc2[nH]c(-c3cc(C(CC(=O)O)C(=O)O)cc(-c4ccccc4O)c3O)nc2c1 (stereo not given)

>  <modifier>
=

>  <Ki (nM)>
13

$$$$
>  <compound>
CC(NC(=O)CNC(=O)Nc1ccc(C(=N)N)cc1)c1ccc(OCc2cccc(Cl)c2)cc1 (stereo not given)

>  <modifier>
=

>  <Ki (nM)>
23

$$$$
>  <compound>
CC[C@H](C)[C@@H]1NC(=O)[C@H](CC(=O)O)NC(=O)[C@@H]2CCCN2C(=O)[C@H](Cc2ccc(O)cc2)NC(=O)[C@H](Cc2ccc(O)cc2)NC(=O)[C@H](C(C)C)NC(=O)[C@@H]2CSCc3cc(cc(c3)CSC[C@@H](C(=O)N[C@@H](C)C(=O)N(C)CC(=O)N(C)CC(=O)N(C)CC(=O)N[C@H](CCCNC(=N)N)C(=O)N[C@H](CCCNC(=N)N)C(=O)O)NC1=O)CSC[C@H](NC(C)=O)C(=O)N[C@@H](CO)C(=O)N[C@@H](Cc1ccccc1)C(=O)N1CCC1C(=O)N[C@@H](Cc1ccc(O)cc1)C(=O)N[C@@H](CCCCNC(=N)N)C(=O)N2 (stereo not given in full)

>  <modifier>
>

>  <Ki (nM)>
50000

$$$$

----------
Coagulation factor VII (Homo sapiens) Ki, compiled from various sources.
measured-property: Ki (nM)

>  <molecule>
CNC(=O)c1ccc(-c2c[nH]c([C@H](Cc3ccccc3)NC(=O)[C@H]3CC[C@H](CN)CC3)n2)cc1

>  <measured-property>
Ki

>  <modifier>
>

>  <endpoint-value>
10900

$$$$
>  <molecule>
N=C(N)c1ccc2[nH]c(-c3cc(C(CC(=O)O)C(=O)O)cc(-c4cccnc4)c3O)nc2c1 (configuration not stated)

>  <measured-property>
Ki

>  <modifier>
=

>  <endpoint-value>
550

$$$$
>  <molecule>
CC1(C)[C@@H]2C[C@H]3OB([C@H](CCCCN)NC(=O)Cn4nc(CNC=O)nc4Cc4ccccc4)O[C@@]3(C)[C@H]1C2

>  <measured-property>
Ki

>  <modifier>
=

>  <endpoint-value>
2200

$$$$
>  <molecule>
N=C(N)c1ccc2nc(-c3cc(C(CC(=O)O)C(=O)O)cc(-c4ccc(F)c(Cl)c4)c3O)[nH]c2c1 (configuration not stated)

>  <measured-property>
Ki

>  <modifier>
=

>  <endpoint-value>
130

$$$$
>  <molecule>
COC(=O)Nc1ccc(-c2nc([C@H](Cc3ccccc3)NC(=O)/C=C/c3cc(Cl)ccc3-n3cnnn3)[nH]c2Cl)cc1

>  <measured-property>
Ki

>  <modifier>
>

>  <endpoint-value>
13400

$$$$
>  <molecule>
CC(C)NC(=O)c1ccc(-c2cccc([C@@H]3C[C@](C)(c4ccccc4)c4cc(C(=N)N)ccc4N3)c2)c(C(=O)O)c1 (racemic)

>  <measured-property>
Ki

>  <modifier>
=

>  <endpoint-value>
1770

$$$$
>  <molecule>
CC1(C)[C@@H]2C[C@H]3OB([C@H](CCCCN)NC(=O)Cn4nc(CC#N)nc4CCc4ccccc4)O[C@@]3(C)[C@H]1C2

>  <measured-property>
Ki

>  <modifier>
>

>  <endpoint-value>
3000

$$$$

----------
Biological target: Coagulation factor VII (Homo sapiens, UniProt P08709)
Sequence (P08709 whole entry): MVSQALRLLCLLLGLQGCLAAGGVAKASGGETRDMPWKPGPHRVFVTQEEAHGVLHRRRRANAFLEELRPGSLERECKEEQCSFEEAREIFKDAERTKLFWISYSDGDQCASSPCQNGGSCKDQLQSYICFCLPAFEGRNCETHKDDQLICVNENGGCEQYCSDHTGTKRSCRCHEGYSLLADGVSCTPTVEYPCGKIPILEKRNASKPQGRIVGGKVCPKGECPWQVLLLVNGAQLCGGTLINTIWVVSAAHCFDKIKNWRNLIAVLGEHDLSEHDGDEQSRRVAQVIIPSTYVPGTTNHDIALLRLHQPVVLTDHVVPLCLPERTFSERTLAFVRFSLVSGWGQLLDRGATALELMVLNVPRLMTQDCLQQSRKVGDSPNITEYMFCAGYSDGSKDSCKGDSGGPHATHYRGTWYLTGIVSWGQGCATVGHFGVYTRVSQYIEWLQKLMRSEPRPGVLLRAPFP
pKi: −log10 of the molar value.
Coagulation factor VII (Homo sapiens, UniProt P08709) pKi, compiled from various sources.
measured-property: pKi

>  <compound>
N=C(N)c1ccc2nc(-c3cc(C(CC(=O)O)C(=O)O)cc(-c4ccccc4N)c3O)[nH]c2c1 (configuration not stated)

>  <measured-property>
pKi

>  <modifier>
=

>  <endpoint-value>
6.38

$$$$
>  <compound>
COc1ccc(C(Nc2ccc(C(=N)N)cc2)C(=O)NCc2ccccc2)cc1OC (configuration not stated)

>  <measured-property>
pKi

>  <modifier>
=

>  <endpoint-value>
6.46

$$$$
>  <compound>
N=C(N)c1ccc2[nH]c(-c3cc(C(CC(=O)O)C(=O)O)cc(-c4cccc(O)c4)c3O)nc2c1 (configuration not stated)

>  <measured-property>
pKi

>  <modifier>
=

>  <endpoint-value>
7.06

$$$$
>  <compound>
CC(C)CNC(=O)c1ccc(-c2ccccc2[C@@H]2C[C@H](c3ccccc3)c3cc(C(=N)N)ccc3N2)c(C(=O)O)c1 (racemic)

>  <measured-property>
pKi

>  <modifier>
=

>  <endpoint-value>
7.02

$$$$
>  <compound>
CC1(C)[C@@H]2C[C@H]3OB([C@H](CCCCN)NC(=O)Cn4nc(CC#N)nc4Cc4ccccc4[N+](=O)[O-])O[C@@]3(C)[C@H]1C2

>  <measured-property>
pKi

>  <modifier>
=

>  <endpoint-value>
5.52

$$$$
>  <compound>
CC1(C)[C@@H]2C[C@H]3OB([C@H](CCCCN)NC(=O)Cn4nc(-c5cccc(N)c5)nc4Cc4ccccc4)O[C@@]3(C)[C@H]1C2

>  <measured-property>
pKi

>  <modifier>
=

>  <endpoint-value>
5.85

$$$$
>  <compound>
NC[C@H]1CC[C@H](C(=O)N[C@@H](Cc2ccccc2)c2nc(-c3ccc(C(N)=O)cc3)c(F)[nH]2)CC1.O=C(O)C(F)(F)F

>  <measured-property>
pKi

>  <modifier>
<

>  <endpoint-value>
4.87

$$$$

----------
pKi: −log10 of the molar value.
Coagulation factor VII (Homo sapiens) pKi, compiled from various sources.

>  <compound>
COC(=O)Nc1ccc2c(c1)NC(=O)CCc1nc(ccc1F)C[C@H](NC(=O)/C=C/c1cc(Cl)ccc1-n1cnnn1)c1nc-2c[nH]1

>  <modifier>
=

>  <pKi>
5.96

$$$$
>  <compound>
N=C(N)c1ccc2[nH]c(-c3cc(C(CC(=O)O)C(=O)O)cc(-c4cc(N)ccc4O)c3O)nc2c1 (stereo unspecified)

>  <modifier>
=

>  <pKi>
8.00

$$$$
>  <compound>
NC[C@H]1CC[C@H](C(=O)N[C@@H](Cc2ccccc2)c2cc(-c3ccc4[nH]nc(O)c4c3)ccn2)CC1

>  <modifier>
<

>  <pKi>
4.82

$$$$
>  <compound>
COC(=O)c1ccc(-c2cccc([C@@H]3C[C@](C)(c4ccccc4)c4cc(C(=N)N)ccc4N3)c2)c(C(=O)O)c1 (racemic)

>  <modifier>
=

>  <pKi>
6.35

$$$$
>  <compound>
CC(=O)NCc1ccc(O)c(-c2cccc(-c3cc4cc(C(=N)N)ccc4[nH]3)c2O)c1

>  <modifier>
=

>  <pKi>
6.92

$$$$
>  <compound>
N=C(N)c1cc2cc(-c3cccc(-c4ccccc4)c3O)[nH]c2cc1F

>  <modifier>
=

>  <pKi>
6.12

$$$$
>  <compound>
CCCc1nc(Cc2ccccc2)n(CC(=O)N[C@@H](CCCCN)B2O[C@@H]3C[C@@H]4C[C@@H](C4(C)C)[C@]3(C)O2)n1

>  <modifier>
=

>  <pKi>
5.62

$$$$
>  <compound>
N=C(N)c1ccc2nc(-c3cc(C(CC(=O)O)C(=O)O)cc(-c4cccc(CO)c4)c3O)[nH]c2c1 (stereo unspecified)

>  <modifier>
=

>  <pKi>
7.68

$$$$
>  <compound>
CCOc1ccc(C(Nc2ccc(C(=N)N)cc2)C(=O)NCc2ccccc2)cc1OCC (stereo unspecified)

>  <modifier>
=

>  <pKi>
7.40

$$$$
>  <compound>
CC(=O)Nc1ccc(C(C)NC(=O)CNC(=O)Nc2ccc(C(=N)N)cc2)cc1 (stereo unspecified)

>  <modifier>
=

>  <pKi>
6.71

$$$$
>  <compound>
N=C(N)c1ccc2nc(-c3cc(C(CC(=O)O)C(=O)O)cc(-c4cccc(Cl)c4Cl)c3O)[nH]c2c1 (stereo unspecified)

>  <modifier>
=

>  <pKi>
6.57

$$$$
>  <compound>
COC(=O)Cc1nc(Cc2ccccc2)n(CC(=O)N[C@@H](CCCCN)B2O[C@@H]3C[C@@H]4C[C@@H](C4(C)C)[C@]3(C)O2)n1

>  <modifier>
=

>  <pKi>
4.85

$$$$
>  <compound>
COc1ccc(-n2nc(C#N)c3ncn(-c4ccc(-c5ccccc5CN5CCCC5)cc4)c(=O)c32)cc1

>  <modifier>
<

>  <pKi>
4.82

$$$$
>  <compound>
NC[C@H]1CC[C@H](C(=O)N[C@@H](Cc2ccccc2)c2nc(-c3ccc4c(N)n[nH]c4c3)c(F)[nH]2)CC1.O=C(O)C(F)(F)F

>  <modifier>
=

>  <pKi>
5.21

$$$$
>  <compound>
COc1ccc(F)cc1-c1cc(C(CC(=O)O)C(=O)O)cc(-c2nc3cc(C(=N)N)ccc3[nH]2)c1O (stereo unspecified)

>  <modifier>
=

>  <pKi>
6.48

$$$$
>  <compound>
CC1(C)[C@@H]2C[C@H]3OB([C@H](CCCCN)NC(=O)Cn4nc(CS(C)(=O)=O)nc4Cc4ccccc4)O[C@@]3(C)[C@H]1C2

>  <modifier>
=

>  <pKi>
5.72

$$$$
